Molecular target: human SCD5 (Homo sapiens, UniProt Q86SK9)
Construct: expressed in transfected cells; host or cells: yeast strain with OLE1 deleted, plasmid-borne human SCD5 (selected in SD-Ura)
Sequence (Q86SK9 1-330): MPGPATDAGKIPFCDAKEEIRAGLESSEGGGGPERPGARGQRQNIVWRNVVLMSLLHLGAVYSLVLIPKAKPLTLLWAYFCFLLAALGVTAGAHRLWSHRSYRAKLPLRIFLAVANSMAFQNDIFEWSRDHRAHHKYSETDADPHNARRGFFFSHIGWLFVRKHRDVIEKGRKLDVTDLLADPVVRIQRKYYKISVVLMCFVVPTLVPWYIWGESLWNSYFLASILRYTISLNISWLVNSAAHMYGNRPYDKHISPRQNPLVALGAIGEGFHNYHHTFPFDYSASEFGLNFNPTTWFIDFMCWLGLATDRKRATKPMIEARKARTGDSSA
Experiment: Growth inhibition of yeast strain expressing human SCD5 as sole desaturase (OLE1 deleted), OD600 readout
Format: cell-based
Conditions: yeast strain expressing human SCD5 as sole desaturase; growth (OD600) after 40 h at 30° C.; read-out: SCD5 IC50
pIC50: −log10 of the molar value.
Quick rule: pIC50 of at least 7 means satisfied, below that means not satisfied.

{"columns": ["compound", "group label"],
 "data": [
  ["Cn1cc(C(=O)Nc2ccc(OCc3cccc(Cl)c3)cn2)ccc1=O", "not satisfied"],
  ["N#Cc1ccc(C(=O)Nc2ccc(CNc3cccc(Cl)c3)cn2)nc1", "not satisfied"],
  ["Cn1nc(C(=O)Nc2cncc(Cc3cccc(Cl)c3)c2)ccc1=O", "not satisfied"],
  ["CN1N=C(C(=O)Nc2nnc(Cc3cccc(Cl)c3)o2)CCC1=O", "not satisfied"],
  ["CS(=O)(=O)c1cccc(C(=O)Nc2ccc(Cc3cccc(F)c3)cn2)c1", "not satisfied"],
  ["O=C(Nc1ccc(Cc2cccc(Cl)c2)cn1)c1ccc(C(F)F)nc1", "not satisfied"],
  ["Cn1nc(NC(=O)c2ccc(Cc3cccc(Cl)c3)cn2)ccc1=O", "satisfied"],
  ["Cn1cc(C(=O)Nc2ccc(COc3ccc(F)c(Cl)c3)cn2)ccc1=O", "not satisfied"],
  ["CC(C)(C#N)c1ccc(C(=O)Nc2ccc(Cc3cccc(Cl)c3)cn2)cn1", "not satisfied"],
  ["CN1N=C(C(=O)Nc2ccc(Cc3cccc(C(F)(F)F)c3)nn2)CCC1=O", "not satisfied"],
  ["O=C(Nc1ccc(Cc2cc(F)cc(Cl)c2)cn1)c1ccc(CO)nc1", "satisfied"],
  ["CCn1nc(C(=O)Nc2ccc(Cc3cccc(Cl)c3)nn2)ccc1=O", "not satisfied"],
  ["CC(O)c1ccc(C(=O)Nc2ccc(Cc3cccc(F)c3)cn2)cn1 (stereo not drawn)", "not satisfied"],
  ["Cn1nccc(C(=O)Nc2ccc(Cc3ccc(F)c(F)c3)cn2)c1=O", "satisfied"],
  ["N#Cc1cc(F)cc(Cc2ccc(NC(=O)c3cnc(C#N)cn3)nc2)c1", "satisfied"],
  ["Cn1nc(C(=O)Nc2ccc(Cc3ccc(F)c(Cl)c3)cn2)ccc1=O", "satisfied"],
  ["CN1N=C(C(=O)Nc2ccc(COc3cccc(F)c3)cn2)CCC1=O", "not satisfied"],
  ["Cc1cc(C(=O)Nc2ccc(Cc3cc(F)cc(C#N)c3)cn2)nc(C)n1", "not satisfied"],
  ["CN1N=C(C(=O)Nc2cnn(Cc3cccc(Cl)c3)c2)CCC1=O", "not satisfied"],
  ["Cn1nc(C(=O)Nc2ccc(Cc3cccc(F)c3)cn2)cc1O", "not satisfied"],
  ["CN1N=C(C(=O)Nc2ccc(NCc3cc(F)cc(C#N)c3)nc2)CCC1=O", "not satisfied"],
  ["Cc1cc(C(=O)Nc2ccc(Cc3cc(F)cc(F)c3)cn2)nn(C)c1=O", "satisfied"],
  ["CN1N=C(C(=O)Nc2ccc(Cc3ccc(F)c(Cl)c3)nn2)CCC1=O [Compound 192]", "not satisfied"],
  ["Cn1cc(C(=O)Nc2ccc(OCc3cc(F)cc(C#N)c3)cn2)ccc1=O", "not satisfied"],
  ["O=C(Nc1ccc(Cc2cccc(F)c2)cn1)c1ccc(=O)n(C2CCC2)n1", "not satisfied"],
  ["COc1ccc(C(=O)Nc2ncc(Cc3cccc(F)c3)s2)nn1", "not satisfied"],
  ["CC(O)c1ccc(C(=O)Nc2ccc(Cc3ccc(F)c(F)c3)cn2)nc1 (stereo not drawn)", "not satisfied"],
  ["Cn1nc(C(=O)Nc2ccc(Nc3cccc(Cl)c3)cn2)ccc1=O", "not satisfied"],
  ["N#Cc1cnc(NC(=O)c2ccc(Cc3cccc(F)c3)cn2)nc1", "satisfied"]
]}
